Cited source: paper PMC3365038

- Procedure Summary: in vivo
- Parameters: species or system Balb/c nu/nu mice
- Run Conditions: female, Balb/c nu/nu, mouse, iv, 1 MBq, total radioactivity, Tumor to organ ratio, Lung
Peptide text beside a SMILES is read from it.

Compound: CC(C)C[C@H](NC(=O)[C@@H]1CCCN1C(=O)[C@@H](NC(=O)[C@H](Cc1c[nH]cn1)NC(=O)[C@@H](N)CC(N)=O)C(C)C)C(=O)N[C@@H](CO)C(=O)N1CCC[C@H]1C(=O)N[C@H](Cc1ccc(O)c(I)c1)C(N)=O [^131I-CaIX-P1-4-10] (HELM PEPTIDE1{N.H.V.P.L.S.P.[O=C([C@@H](Cc1ccc(O)c(I)c1)N[*:1])[*:2]].[am]}$$$$V2.0; N-terminus assumed)
tissue to tissue ratio at 1 h: 0.88

----------
- Procedure Summary: in vivo
- Design: species or system Balb/c nu/nu mice
- Run Conditions: female, Balb/c nu/nu, mouse, iv, 1 MBq, total radioactivity, Tumor to organ ratio, Kidney
Peptide text beside a SMILES is read from it.

Compound: CC(C)C[C@H](NC(=O)[C@@H]1CCCN1C(=O)[C@@H](NC(=O)[C@H](Cc1c[nH]cn1)NC(=O)[C@@H](N)CC(N)=O)C(C)C)C(=O)N[C@@H](CO)C(=O)N1CCC[C@H]1C(=O)N[C@H](Cc1ccc(O)c(I)c1)C(N)=O [^131I-CaIX-P1-4-10] (HELM PEPTIDE1{N.H.V.P.L.S.P.[O=C([C@@H](Cc1ccc(O)c(I)c1)N[*:1])[*:2]].[am]}$$$$V2.0; N-terminus assumed)
tissue to tissue ratio at 0.25 h: 0.56

----------
- Procedure Summary: in vivo
- Set-up: species or system Balb/c nu/nu mice
- Run Conditions: female, Balb/c nu/nu, mouse, iv, 1 MBq, total radioactivity, Tumor to organ ratio, Brain
Peptide text beside a SMILES is read from it.
Parameter: tissue to tissue ratio at 1 h

Molecule: CC(C)C[C@H](NC(=O)[C@@H]1CCCN1C(=O)[C@@H](NC(=O)[C@H](Cc1c[nH]cn1)NC(=O)[C@@H](N)CC(N)=O)C(C)C)C(=O)N[C@@H](CO)C(=O)N1CCC[C@H]1C(=O)N[C@H](Cc1ccc(O)c(I)c1)C(N)=O [^131I-CaIX-P1-4-10] (HELM PEPTIDE1{N.H.V.P.L.S.P.[O=C([C@@H](Cc1ccc(O)c(I)c1)N[*:1])[*:2]].[am]}$$$$V2.0; N-terminus assumed)
Parameter: tissue to tissue ratio at 1 h
Numeric Readout: 14.9

----------
- Procedure Summary: in vivo
- Set-up: species or system Balb/c nu/nu mice
- Run Conditions: female, Balb/c nu/nu, mouse, iv, 1 MBq, total radioactivity, Tumor to organ ratio, Muscle
Peptide text beside a SMILES is read from it.
Parameter: tissue to tissue ratio at 4 h

Compound: CC(C)C[C@H](NC(=O)[C@@H]1CCCN1C(=O)[C@@H](NC(=O)[C@H](Cc1c[nH]cn1)NC(=O)[C@@H](N)CC(N)=O)C(C)C)C(=O)N[C@@H](CO)C(=O)N1CCC[C@H]1C(=O)N[C@H](Cc1ccc(O)c(I)c1)C(N)=O [^131I-CaIX-P1-4-10] (HELM PEPTIDE1{N.H.V.P.L.S.P.[O=C([C@@H](Cc1ccc(O)c(I)c1)N[*:1])[*:2]].[am]}$$$$V2.0; N-terminus assumed)
Parameter: tissue to tissue ratio at 4 h
Numeric Readout: 2.53
